The measured values listed here are drawn from ChEMBL document CHEMBL3243978.

method notes: Acute toxicity in po dosed mouse
experimental parameters: in vivo

molecule	measurement units	LD50
N#Cc1ccccc1-c1nc2ncccc2o1	mg/kg	1220
CCCCC1C(=O)N(c2ccccc2)N(c2ccccc2)C1=O [PHENYLBUTAZONE]	mg/kg	555
CC(=O)Oc1ccccc1C(=O)O [ASPIRIN]	mg/kg	1220
N#Cc1ccccc1-c1nc2cccnc2o1	mg/kg	1500

* * *

Each record here notes measured inhibition in vivo at 30 mg/kg.
Species on record: Rattus norvegicus
method notes: animal or person
Assay type: functional
Description: Antiinflammatory activity in rat assessed as inhibition of carrageenan-induced foot edema at 30 mg/kg

compound string	inhibition in vivo at 30 mg/kg [%]
Cc1ccccc1-c1nc2cccnc2o1	3
COc1ccc(-c2nc3cccnc3o2)cc1	29
N#Cc1cccc(C#N)c1-c1nc2ncccc2o1	19
c1ccc(-c2nc3ncccc3o2)cc1	41
Clc1ccccc1-c1nc2ncccc2o1	38
Fc1ccc(F)c(-c2nc3ncccc3o2)c1	18
FC(F)(F)c1ccccc1-c1nc2ncccc2o1	19
N#Cc1ccccc1-c1nc2ncccc2o1	62
O=[N+]([O-])c1ccccc1-c1nc2cccnc2o1	57
FC(F)(F)c1cccc(-c2nc3cccnc3o2)c1	7
COc1ccccc1-c1nc2ncccc2o1	9
N#Cc1cccc(-c2nc3ncccc3o2)c1	21
COc1ccc(Br)c(-c2nc3ncccc3o2)c1	8
Brc1ccccc1-c1nc2cccnc2o1	31
Cc1ccccc1-c1nc2ncccc2o1	0
N#Cc1ccccc1-c1nc2cccnc2o1	61
Clc1cccc(-c2nc3ncccc3o2)c1	32
Clc1ccc(-c2nc3cccnc3o2)cc1	14
N#Cc1ccc(-c2nc3cccnc3o2)cc1	17
Cc1cccc(-c2nc3cccnc3o2)c1	14
FC(F)(F)Oc1ccc(-c2nc3ncccc3o2)cc1	0
COc1ccc(C#N)c(-c2nc3ncccc3o2)c1	3
